Test system: Amaranthus retroflexus
Assay: Glasshouse assay for herbicidal activity, post-emergence, AMARE
Assay type: in vivo
Conditions: Amaranthus retroflexus, 312 h, 250 g/ha, visual 13 days after application, 100%=total damage, read-out: Percentage phytotoxicity AMARE
measurement type: pest or weed control at 250 g/ha (%)
Give bare numbers, in %.

Solved cases (2 shown):
[
  {
    "molecule": "CC#Cc1ccc(C2=C(OC(=O)C(C)C)C3CCC(C3)C2=O)c(OC)c1 (stereo not drawn) [Compound P10]",
    "pest or weed control at 250 g/ha (%)": 40
  },
  {
    "molecule": "CC#Cc1ccc(C2C(=O)C3CCC(C3)C2=O)c(CCC)c1 (stereo not drawn) [Compound A16]",
    "pest or weed control at 250 g/ha (%)": 0
  }
]

Fill in pest or weed control at 250 g/ha for each of the 7 molecules listed.
1. CC#Cc1ccc(C2C(=O)C3CCC(C3)C2=O)c(OC(F)(F)F)c1 (stereo not drawn) [Compound A8]
2. CC#Cc1ccc(C2C(=O)C3CCC(C3)C2=O)c(OC(F)F)c1 (stereo not drawn) [Compound A5]
3. CC#Cc1cc(OC)c(C2C(=O)C3CCC(C3)C2=O)c(OC)c1 (stereo not drawn) [Compound A7]
4. C=CC(=O)OC1=C(c2ccc(C#CC)cc2OC)C(=O)C2CCC1C2 (stereo not drawn) [Compound P18]
5. CC#Cc1ccc(C2=C(OS(=O)(=O)CC)C3CCC(C3)C2=O)c(OC)c1 (stereo not drawn) [Compound P17]
6. CC#Cc1cc(OC)c(C2C(=O)C3CCC(C3)C2=O)c(C(F)(F)F)c1 (stereo not drawn) [Compound A3]
7. CC#Cc1ccc(C2C(=O)CC3(CCOCC3)CC2=O)c(OC)c1 [Compound A12]

Key:
10
0
0
30
0
0
30
